# Test system: Escherichia coli TOP10
# assay-procedure: shrunken log2 fold change of peptide-encoding DNA abundance (4.5 h post-induction vs induction); higher = less antimicrobial activity (less host growth inhibition)
# reported-conditions: time post-induction: 4.5 h; library: site-saturation at positions 5, 18, 19, 20
measure-name: shrunken log2 fold change
Numbers only.

Examples from the recorded data:
monomer-sequence: RRIRYRPPRLPRPRPRPLDCPRP
shrunken log2 fold change: -0.068
//
monomer-sequence: RRIRQRPPRLPRPRPRPYRTPRP
shrunken log2 fold change: 0.0218
//
monomer-sequence: RRIRQRPPRLPRPRPRPYLFPRP
shrunken log2 fold change: -0.509
//
monomer-sequence: RRIRARPPRLPRPRPRPWTEPRP
shrunken log2 fold change: -0.181
//
monomer-sequence: RRIRCRPPRLPRPRPRPAVEPRP
shrunken log2 fold change: -0.0939

Hi team, please reply with shrunken log2 fold change for each item in this list.
1. RRIRARPPRLPRPRPRPHYLPRP
2. RRIRGRPPRLPRPRPRPWRNPRP
3. RRIRNRPPRLPRPRPRPAPLPRP
4. RRIRTRPPRLPRPRPRPLPAPRP

-0.503
0.297
0.196
0.364

Hi team, please reply with shrunken log2 fold change for each item in this list.
1. RRIRARPPRLPRPRPRPIGKPRP
2. RRIRFRPPRLPRPRPRPHFEPRP
3. RRIRFRPPRLPRPRPRPCACPRP

1: -0.00841; 2: -0.185; 3: -0.0607

Here RRIRSRPPRLPRPRPRPRWKPRP was tested on Escherichia coli TOP10, and its shrunken log2 fold change came to 0.206

###

What shrunken log2 fold change was measured for each of the following?
# Test system: Escherichia coli TOP10
# assay-procedure: shrunken log2 fold change of peptide-encoding DNA abundance (4.5 h post-induction vs induction); higher = less antimicrobial activity (less host growth inhibition)
# reported-conditions: time post-induction: 4.5 h; library: site-saturation at positions 5, 18, 19, 20
One number for each entry.

monomer-sequence: RRIRHRPPRLPRPRPRPILMPRP
data-value: -0.00291

Hi team, please reply with shrunken log2 fold change for each item in this list.
1. RRIRVRPPRLPRPRPRPFYDPRP
2. RRIRHRPPRLPRPRPRPCIWPRP

[-0.0104, -0.121]

###

# Test system: Escherichia coli TOP10
# assay-procedure: shrunken log2 fold change of peptide-encoding DNA abundance (4.5 h post-induction vs induction); higher = less antimicrobial activity (less host growth inhibition)
# reported-conditions: time post-induction: 4.5 h; library: site-saturation at positions 5, 18, 19, 20
Classes based on shrunken log2 fold change: lower band = under -0.09, central band = from -0.09 up to -0.002, upper band = -0.002 and over

Any idea which band RRIRNRPPRLPRPRPRPYDEPRP is in?
central band

Any idea which band RRIRHRPPRLPRPRPRPTGTPRP is in?
central band

Any idea which band RRIRIRPPRLPRPRPRPCYTPRP is in?
lower band

Any idea which band RRIRIRPPRLPRPRPRPNVNPRP is in?
lower band

Any idea which band RRIRGRPPRLPRPRPRPENTPRP is in?
upper band

Any idea which band RRIRQRPPRLPRPRPRPWFVPRP is in?
lower band

Any idea which band RRIRHRPPRLPRPRPRPKAWPRP is in?
upper band

Any idea which band RRIRVRPPRLPRPRPRPMVTPRP is in?
central band

Any idea which band RRIRSRPPRLPRPRPRPTGVPRP is in?
upper band

Any idea which band RRIRFRPPRLPRPRPRPQFFPRP is in?
lower band

Any idea which band RRIRFRPPRLPRPRPRPNWKPRP is in?
upper band

Any idea which band RRIRARPPRLPRPRPRPNPSPRP is in?
upper band

###

# Test system: Escherichia coli TOP10
# assay-procedure: shrunken log2 fold change of peptide-encoding DNA abundance (4.5 h post-induction vs induction); higher = less antimicrobial activity (less host growth inhibition)
# reported-conditions: time post-induction: 4.5 h; library: site-saturation at positions 5, 18, 19, 20
What shrunken log2 fold change was measured for each of the following?
Numbers only.

monomer-sequence: RRIRWRPPRLPRPRPRPDKIPRP
shrunken log2 fold change: -0.0504

Hi team, please reply with shrunken log2 fold change for each item in this list.
1. RRIRWRPPRLPRPRPRPQRGPRP
2. RRIRTRPPRLPRPRPRPSRRPRP
3. RRIRTRPPRLPRPRPRPNSNPRP
4. RRIRTRPPRLPRPRPRPISRPRP

[0.115, 0.128, -0.716, -0.0253]

Hi team, please reply with shrunken log2 fold change for each item in this list.
1. RRIRLRPPRLPRPRPRPMHYPRP
2. RRIRNRPPRLPRPRPRPETAPRP
3. RRIRQRPPRLPRPRPRPWGIPRP
4. RRIRQRPPRLPRPRPRPANKPRP
5. RRIRVRPPRLPRPRPRPPQKPRP
6. RRIRCRPPRLPRPRPRPVCGPRP
7. RRIRARPPRLPRPRPRPDYPPRP
8. RRIRHRPPRLPRPRPRPYGNPRP

1: -0.094; 2: 0.536; 3: 0.0274; 4: -0.397; 5: 0.23; 6: 0.268; 7: -0.0306; 8: -0.298

Hi team, please reply with shrunken log2 fold change for each item in this list.
1. RRIRERPPRLPRPRPRPDKHPRP
2. RRIRMRPPRLPRPRPRPDDCPRP
3. RRIRARPPRLPRPRPRPNMQPRP
4. RRIRERPPRLPRPRPRPCIRPRP
5. RRIRCRPPRLPRPRPRPNKVPRP

1. 0.236
2. 0.681
3. 0.18
4. -0.152
5. -0.142

Hi team, please reply with shrunken log2 fold change for each item in this list.
1. RRIRWRPPRLPRPRPRPPKHPRP
2. RRIRVRPPRLPRPRPRPFSVPRP
3. RRIRMRPPRLPRPRPRPYQTPRP
4. RRIRWRPPRLPRPRPRPWSRPRP

0.272
-0.299
-0.0231
-0.132

###

# Test system: Escherichia coli TOP10
# assay-procedure: shrunken log2 fold change of peptide-encoding DNA abundance (4.5 h post-induction vs induction); higher = less antimicrobial activity (less host growth inhibition)
# reported-conditions: time post-induction: 4.5 h; library: site-saturation at positions 5, 18, 19, 20
What shrunken log2 fold change was measured for each of the following?
One number for each entry.

monomer-sequence: RRIRPRPPRLPRPRPRPHTAPRP
data-value: -0.205
--
monomer-sequence: RRIRTRPPRLPRPRPRPFLIPRP
data-value: -0.378
--
monomer-sequence: RRIRCRPPRLPRPRPRPCCKPRP
data-value: -0.0101
--
monomer-sequence: RRIRKRPPRLPRPRPRPEIIPRP
data-value: -0.0419
--
monomer-sequence: RRIRCRPPRLPRPRPRPQEGPRP
data-value: -0.0193
--
monomer-sequence: RRIRHRPPRLPRPRPRPGSKPRP
data-value: -0.00664

Hi team, please reply with shrunken log2 fold change for each item in this list.
1. RRIRPRPPRLPRPRPRPADTPRP
2. RRIRGRPPRLPRPRPRPGTMPRP

0.221
0.0523

Hi team, please reply with shrunken log2 fold change for each item in this list.
1. RRIRTRPPRLPRPRPRPQMIPRP
2. RRIRTRPPRLPRPRPRPRWLPRP
3. RRIRQRPPRLPRPRPRPAARPRP
4. RRIRQRPPRLPRPRPRPTWWPRP
5. RRIRTRPPRLPRPRPRPDIKPRP
6. RRIRIRPPRLPRPRPRPMSIPRP
7. RRIRPRPPRLPRPRPRPECFPRP

[-0.346, 0.369, 0.246, 0.314, -0.197, -0.0563, 0.122]

Hi team, please reply with shrunken log2 fold change for each item in this list.
1. RRIRRRPPRLPRPRPRPQRWPRP
2. RRIRIRPPRLPRPRPRPTKCPRP
3. RRIRPRPPRLPRPRPRPAFPPRP

1. -0.0703
2. -0.696
3. 0.409

###

What shrunken log2 fold change was measured for each of the following?
# System: Escherichia coli TOP10;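 also: peptides expressed intracellularly from a pBAD plasmid library in pooled LB shake-flask culture, induced with 0.3% L-arabinose, DNA abundance read by NGS, three biological replicates, DESeq2 with apeglm shrinkage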
# assay-procedure: shrunken log2 fold change of peptide-encoding DNA abundance (4.5 h post-induction vs induction); higher = less antimicrobial activity (less host growth inhibition)
# reported-conditions: time post-induction: 4.5 h; library: site-saturation at positions 5, 18, 19, 20

Examples from the recorded data:
monomer-sequence: RRIRARPPRLPRPRPRPVFNPRP
measure-name: shrunken log2 fold change
data-value: -0.297

monomer-sequence: RRIRPRPPRLPRPRPRPGQCPRP
measure-name: shrunken log2 fold change
data-value: -0.0386

monomer-sequence: RRIRKRPPRLPRPRPRPNIHPRP
measure-name: shrunken log2 fold change
data-value: -0.112

monomer-sequence: RRIRYRPPRLPRPRPRPISGPRP
measure-name: shrunken log2 fold change
data-value: 0.0356

Hi team, please reply with shrunken log2 fold change for each item in this list.
1. RRIRHRPPRLPRPRPRPAIWPRP
2. RRIRVRPPRLPRPRPRPPRCPRP
3. RRIRKRPPRLPRPRPRPCQKPRP

[0.137, 0.324, -0.0405]
